Data provenance is patent US8263651B2.

Measured pIC50 (BZD (peripheral) (Rattus norvegicus, UniProt P16257))
Please keep in mind that pIC50 is minus log10 of the molar concentration; only the number is needed.

Check out these entries, answers already filled in.
1. CCCCC/C=C\C/C=C\C/C=C\CC1OC1CCCC(=O)OC (stereo not shown) [5,6 EET-me]    4.92
2. CCCCCC1OC1C/C=C\C/C=C\C/C=C\CCCC(=O)OC (stereo not shown) [14,15 EET-me]    4.92

Now for the compound whose pIC50 we want.
For BZD (peripheral) (Rattus norvegicus, UniProt P16257), provide pIC50 of CCCCC/C=C\CC1OC1C/C=C\C/C=C\CCCC(=O)OC (stereo not shown) [11,12 EET-me] please.
3.85

###

biological target: Cannabinoid CB2 (Homo sapiens, UniProt P34972); construct: host or cells: CHO cells; assay: radio-ligand binding competition, CB2 ([3H]WIN 55212-2); settings: second round, individual EET isomers, 3 μM
Sequence (P34972 whole entry): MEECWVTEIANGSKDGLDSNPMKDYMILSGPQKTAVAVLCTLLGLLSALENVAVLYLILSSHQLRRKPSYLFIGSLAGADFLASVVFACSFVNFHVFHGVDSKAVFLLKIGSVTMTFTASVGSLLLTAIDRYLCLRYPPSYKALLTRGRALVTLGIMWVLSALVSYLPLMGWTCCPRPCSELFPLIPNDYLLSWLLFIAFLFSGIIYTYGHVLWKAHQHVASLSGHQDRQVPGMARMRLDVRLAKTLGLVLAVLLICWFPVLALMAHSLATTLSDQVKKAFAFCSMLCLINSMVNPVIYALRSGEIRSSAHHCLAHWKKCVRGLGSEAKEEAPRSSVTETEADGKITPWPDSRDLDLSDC
Measured Metric: % Inhibition of Control Specific Binding (%)
Answer format: numeric, % implied, no suffix.

Example results:
1) CCCCC/C=C\C/C=C\CC1OC1C/C=C\CCCC(=O)O (stereo not shown) [8,9-EET]    −2
2) CCCCC/C=C\C[C@H]1O[C@H]1C/C=C\C/C=C\CCCC(=O)O [11,12-EET]    3
3) CCCCC/C=C\C/C=C\C/C=C\CC1OC1CCCC(=O)O (stereo not shown) [5,6-EET]    25

Consider now this further compound.
Test system Cannabinoid CB2 (Homo sapiens, UniProt P34972); read-out % Inhibition of Control Specific Binding; what value for CCCCCC1OC1C/C=C\C/C=C\C/C=C\CCCC(=O)O (stereo not shown) [14,15-EET] ?
5

###

target: Cannabinoid CB2 (Homo sapiens); construct: host or cells: CHO cells; test: radio-ligand binding competition, CB2 ([3H]WIN 55212-2); details: displacement of high affinity ligand; read-out: IC50, CB2
Measured IC50 values are reported for all entries that follow.

A selection of reference data follows.
1) CCCCC/C=C\CC1OC1C/C=C\C/C=C\CCCC(=O)OC (stereo not shown)    > 100 µM
2) CCCCC/C=C\C/C=C\CC1OC1C/C=C\CCCC(=O)OC (stereo not shown)    > 100 µM
3) CCCCC/C=C\C/C=C\C/C=C\CC1OC1CCCC(=O)OC (stereo not shown)    20 µM

Now, please, on to the next compound.
I would be grateful if you could share the reported IC50 for CCCCCC1OC1C/C=C\C/C=C\C/C=C\CCCC(=O)OC (stereo not shown) .
> 100 µM

###

target: Neurokinin NK2 (Homo sapiens); assay: radio-ligand binding competition, NK2; conditions: second round, individual EET isomers, 3 μM
Sequence (P21452 whole entry): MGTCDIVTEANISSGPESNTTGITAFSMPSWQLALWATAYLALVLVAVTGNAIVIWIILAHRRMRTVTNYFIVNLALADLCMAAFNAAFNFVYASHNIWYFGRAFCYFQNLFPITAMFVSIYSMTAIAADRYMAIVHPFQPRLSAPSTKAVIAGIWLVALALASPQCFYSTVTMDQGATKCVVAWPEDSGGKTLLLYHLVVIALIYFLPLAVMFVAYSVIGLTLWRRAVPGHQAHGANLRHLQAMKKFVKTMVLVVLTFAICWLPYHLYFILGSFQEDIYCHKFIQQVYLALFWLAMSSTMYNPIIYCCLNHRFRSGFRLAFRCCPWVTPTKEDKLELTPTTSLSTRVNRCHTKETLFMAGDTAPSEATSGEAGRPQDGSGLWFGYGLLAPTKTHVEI
Catalogue of % Inhibition of Control Specific Binding values
// return the numeric value with its unit appended

Worked examples, 3 compounds total:
1. CCCCC/C=C\C/C=C\C/C=C\CC1OC1CCCC(=O)O (stereo not shown)    25%
2. CCCCC/C=C\C/C=C\CC1OC1C/C=C\CCCC(=O)O (stereo not shown)    10%
3. CCCCCC1OC1C/C=C\C/C=C\C/C=C\CCCC(=O)O (stereo not shown)    8%

Now, please, on to the next compound.
Fill in: % Inhibition of Control Specific Binding of CCCCC/C=C\C[C@H]1O[C@H]1C/C=C\C/C=C\CCCC(=O)O is ___
1%
